Tested on: LPS-induced TNF-α release in peripheral blood mononuclear cells (PBMCs)
protocol.description: In vitro determination of PDE4 inhibitory activity in the PBMCs assay (LPS-induced TNF-α release)
Assay type: cell-based, human
test.settings: PBMC; human PBMCs, LPS 3 ng/ml, 18 hours, TNF-α by ELISA; read-out: PDE4 inhibition (IC50, 50% inhibition of LPS-induced TNF-α release)
pIC50: −log10 of the molar value.
Please respond with reported pIC50 for every item in the list.

Completed entries (count: 2):
molecule | system.tested | pIC50
O=C(O[C@@H](Cc1c(Cl)c[n+]([O-])cc1Cl)c1ccc(OC(F)F)c(OCC2CC2)c1)[C@@H]1CCCCN1S(=O)(=O)c1ccccc1 | LPS-induced TNF-α release in peripheral blood mononuclear cells (PBMCs) | 9.00 to 10.00
CN(C)C(=O)c1cccc(S(=O)(=O)N2CCC[C@H]2C(=O)O[C@@H](Cc2c(Cl)c[n+]([O-])cc2Cl)c2ccc(OC(F)F)c(OCC3CC3)c2)c1 | LPS-induced TNF-α release in peripheral blood mononuclear cells (PBMCs) | > 10.00

Report pIC50 for each item below.
1. Nc1ccc(S(=O)(=O)N2CSC[C@H]2C(=O)O[C@@H](Cc2c(Cl)c[n+]([O-])cc2Cl)c2ccc(OC(F)F)c(OCC3CC3)c2)cc1
2. CNS(=O)(=O)c1cccc(S(=O)(=O)N2CCSC2C(=O)O[C@@H](Cc2c(Cl)c[n+]([O-])cc2Cl)c2ccc(OC(F)F)c(OCC3CC3)c2)c1 (stereo partly shown)
3. COc1ccc(S(=O)(=O)N2CCS[C@H]2C(=O)O[C@@H](Cc2c(Cl)c[n+]([O-])cc2Cl)c2ccc(OC(F)F)c(OCC3CC3)c2)cc1
4. CN1CCOc2ccc(S(=O)(=O)N3CSC[C@H]3C(=O)O[C@@H](Cc3c(Cl)c[n+]([O-])cc3Cl)c3ccc(OC(F)F)c(OCC4CC4)c3)cc21
5. COc1ccc(S(=O)(=O)N2CCC[C@H]2C(=O)O[C@@H](Cc2c(Cl)c[n+]([O-])cc2Cl)c2ccc(OC(F)F)c(OCC3CC3)c2)cc1OC

1. 9.00 to 10.00
2. > 10.00
3. 9.00 to 10.00
4. > 10.00
5. 9.00 to 10.00
